# Target or test system: Mitogen-activated protein kinase 9 (Homo sapiens)
# Sequence (P45984 whole entry): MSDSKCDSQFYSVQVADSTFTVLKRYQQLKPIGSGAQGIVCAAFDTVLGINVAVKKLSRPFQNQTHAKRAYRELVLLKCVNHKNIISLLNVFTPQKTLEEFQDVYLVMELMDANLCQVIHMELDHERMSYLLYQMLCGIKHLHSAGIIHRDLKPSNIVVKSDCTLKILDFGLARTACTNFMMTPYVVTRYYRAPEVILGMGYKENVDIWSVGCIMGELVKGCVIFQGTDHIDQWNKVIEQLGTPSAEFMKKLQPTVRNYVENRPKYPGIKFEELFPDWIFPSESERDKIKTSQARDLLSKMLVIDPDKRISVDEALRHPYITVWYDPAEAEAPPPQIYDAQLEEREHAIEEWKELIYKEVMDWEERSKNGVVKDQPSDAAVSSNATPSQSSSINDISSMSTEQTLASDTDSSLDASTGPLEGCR
# Test summary: Inhibition of human JNK2 incubated for 40 mins in presence of ATP and [gamma33P-ATP] by scintillation counting method
Metric name: IC50 (nM)
Answers are plain numbers, in nM.

IC50 lookup needed for "N#CCc1cnc(-c2ccc3c(c2)CCO3)n1-c1ccnc(N[C@H]2CCCN(C(=O)C3CC3)C2)n1" , thanks.
44

For each of the compounds below, note its IC50.
1. N#CCc1cnc(-c2ccc3ccccc3c2)n1-c1ccnc(N[C@H]2CCCCN(C(=O)C3CC3)C2)n1
2. N#CCc1cnc(-c2ccc(Cl)c(Cl)c2)n1-c1ccnc(N[C@H]2CCCN(C(=O)NC3CC3)C2)n1
3. CC(C)(C)C(=O)N1CCC[C@H](Nc2nccc(-n3c(CC#N)cnc3-c3ccc(Cl)c(Cl)c3)n2)C1

241
55.8
81

For each of the compounds below, note its IC50.
1. N#CCc1cnc(-c2ccc3ccccc3c2)n1-c1ccnc(Nc2cccc(C(=O)C3CC3)c2)n1
2. N#CCc1cnc(-c2ccc3ccccc3c2)n1-c1ccnc(N[C@H]2CCCN(C(=O)C3CC3)C2)n1
3. N#CCc1cnc(-c2ccc3occc3c2)n1-c1ccnc(N[C@H]2CCCN(C(=O)C3CC3)C2)n1
4. N#CCc1cnc(-c2ccc3ccccc3c2)n1-c1ccnc(N[C@@H]2CCCN(C(=O)C3CC3)C2)n1
5. N#CCc1cnc(-c2ccc(Cl)c(Cl)c2)n1-c1ccnc(N[C@H]2CCCN(C(=O)C3CC3)C2)n1

[287, 144, 268, 66.1, 44.2]
